Source of measurements: patent US20230220062A1

Tested Target: T1, recombinant human IL-19 (human, UniProt Q9UHD0 25-177)
T1 construct: also called human IL-19 recombinant protein; interleukin-19
T1 sequence: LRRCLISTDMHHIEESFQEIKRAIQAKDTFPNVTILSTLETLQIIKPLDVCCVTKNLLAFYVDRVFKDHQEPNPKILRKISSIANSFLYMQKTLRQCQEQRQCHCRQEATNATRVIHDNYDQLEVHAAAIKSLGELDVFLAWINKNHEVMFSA
Assay Remarks: BLI (Octet Red96), antibody on AMQ biosensor, IL-19 in solution, 25 C, 1:1 fit
From the text: Except as noted, all reagents and materials are from ForteBio (Freemont, Calif.). An AMQ biosensor is used to immobilize antibody of interest for analysis. Binding data is processed using standard double-referencing and fit to a 1:1 binding model using Data Analysis v9.0 evaluation software, to determine the association rate (kₒₙ, M⁻¹ s⁻¹ units), dissociation rate (koff, s⁻¹ units), and Rₘₐₓ (nm units). […]
Result Type: kon (M⁻¹ s⁻¹)
Give just the numeric value; M⁻¹ s⁻¹ need not be written.

rabbit derived IL-19 antibody R_4 (antibody, V domains shown) VH: CQSVEESGGRLVTPGTPLTLTCTVSGIDLSIYAMGWVRQAPGKGLEYIGIIDTTGTAYYARWAKGRFTISKTSATVALKITSPTTEDTATYFCARDSGSLYYGSYALWGPGTLVTVSS VL: DVVMTQTPSSVSEPVGGTVTIKCQASQSIYSYLSWYQQKPGQPPKLLIYEASKLASGVPSRFKGSGSGTQFTLTISGVECADAATYYCQQGYSSSNVDNTFGGGTEVVVT : 152000

Please examine the following record next.
Value lookup for kon; key = rabbit derived IL-19 antibody R_3 (antibody, V domains shown) VH: CQSLEESGGGLVEPEGSLTLTCKASGFSFSSSYWICWVRQAPGKGLEWIACTDTFSGDTYYASWAKGRFTISKTSSTTVTLRMTSLTDADTATYFCARDIFGTAVHISLWGPGTLVTVSS VL: DVVMTQTPSSVEAAVGGTVTIKCQASQSIGSSLAWYQQKPGQRPKLLIYGASTLASGVPSRFKGSGSGTEFTLTISDLECADAATYYCQCHYHGSSYWDNSFGGGTEVVVK
391000
